biological target: T1, recombinant biotinylated CD71 extracellular domain (Sino Biologics) with an N-terminal 6His tag (human, UniProt P02786 89-760, biotinylated (sites not given)); assay: screening ELISA, ratio
T1 construct: extracellular domain; also called hCD71; huCD71
T1 sequence (P02786 other isoform, or with tags, fused parts or gaps): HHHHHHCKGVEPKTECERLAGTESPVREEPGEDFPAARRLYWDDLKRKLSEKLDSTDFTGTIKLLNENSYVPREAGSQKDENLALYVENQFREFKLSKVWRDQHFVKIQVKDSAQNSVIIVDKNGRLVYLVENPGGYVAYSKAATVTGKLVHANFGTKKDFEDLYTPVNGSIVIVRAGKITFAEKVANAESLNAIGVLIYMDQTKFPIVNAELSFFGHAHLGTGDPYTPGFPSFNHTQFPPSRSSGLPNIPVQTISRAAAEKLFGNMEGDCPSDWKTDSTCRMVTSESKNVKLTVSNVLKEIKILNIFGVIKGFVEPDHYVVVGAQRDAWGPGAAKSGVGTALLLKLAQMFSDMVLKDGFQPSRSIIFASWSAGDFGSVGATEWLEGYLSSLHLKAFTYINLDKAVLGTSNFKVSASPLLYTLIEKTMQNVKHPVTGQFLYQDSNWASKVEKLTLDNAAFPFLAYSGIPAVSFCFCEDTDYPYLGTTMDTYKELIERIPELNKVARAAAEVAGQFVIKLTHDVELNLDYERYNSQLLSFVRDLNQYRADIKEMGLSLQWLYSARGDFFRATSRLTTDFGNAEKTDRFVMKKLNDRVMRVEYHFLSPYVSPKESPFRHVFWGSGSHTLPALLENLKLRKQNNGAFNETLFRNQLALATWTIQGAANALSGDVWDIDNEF
Could you please classify the records by hCD71:HSA using these ranges: low: < 90; mid: ≥ 90 and < 500; high: ≥ 500

SEQ ID NO 99 (designed binder, FN3 domain) MLPAPKNLVVSRVTEDSARLSWTAPDAAFDSFGIQYNEFVFRGEAIVLTVPGSERSYDLTGLKPGTEYFVPISGVKGGDDSRPLSAIFTT; mid
SEQ ID NO 102 (designed binder, FN3 domain) MLPAPKNLVVSRVTEDSARLSWTAPDAAFDSFSIDYDEPQPVGEAIVLTVPGSERSYDLTGLKPGTEYRVDIWGVKGGPTSGPLRATFTT; mid
SEQ ID NO 194 (designed binder, FN3 domain) MLPAPKNLVVSRVTEDSARLSWTAPDAAFDSFEIDYDELAIYGEAIVLTVPGSERSYDLTGLKPGTEYRVFIYGVKGGWTSWPLSTIFTT; low
SEQ ID NO 293 (designed binder, FN3 domain) MLPAPKNLVVSRVTEDSARLSWTAPDAAFDSFTIEYWEFTGSGEAIVLTVPGSERSYDLTGLKPGTEYDVSIYGVKGGWLSYPLSAIFTT; high
SEQ ID NO 239 (designed binder, FN3 domain) MLPAPKNLVVSRVTEDSARLSWTAPDAAFDSFAITYYEGRWRGEAIVLTVPGSERSYDLTGLKPGTEYGVPIRGVKGGTGSLPLSAIFTT; low
SEQ ID NO 146 (designed binder, FN3 domain) MLPAPKNLVVSRVTEDSARLSWTAPDAAFDSFYIAYAEPRPDGEAIVLTVPGSERSYDLTGLKPGTEYSVLIHGVKGGLLSSPLSAIFTT; high
SEQ ID NO 88 (designed binder, FN3 domain) MLPAPKNLVVSRVTEDSARLSWTAPDAAFDSFWIEYFEWTVGGEAIVLTVPGSERSYDLTGLKPGTEYYVSIYGVKGGWLSPPLSAIFTT; mid
SEQ ID NO 236 (designed binder, FN3 domain) MLPAPKNLVVSRVTEDSARLSWTAPDAAFDSFWIEYYEELGSGEAIVLTVPGSERSYDLTGLKPGTEYRVYIYGVKGGYPSSPLSAIFTT; high
